- Tested on: MCF7 breast
- assay-procedure: NCI-60 one-dose screen, 48 h (100 = growth as untreated, 0 = no growth, -100 = all killed)
- protocol-conditions: 10 µM unless noted
This is part of a sample that, as a whole, favours compounds with a hit. Of some 83,000 tested, about 20% had one in any assay.
property-measured: growth (%)

> print(dat)
                                    compound  property.measured  reading.unit  endpoint.result
 1  CCCCc1ccc(Nc2nnc(SCC(=O)NC(=O)NCC)s2)cc1             growth             %              101
 2          CCc1c(Nc2ccc(C)cc2)[nH]c(N)nc1=S             growth             %             91.3
 3             CCCC/C(=N\N=C(N)N)c1ccc(F)cc1             growth             %             13.1
 4        COc1cc2nnn3c4ncccc4c(N=O)c3c2cc1OC             growth             %             21.4
 5  CN1CCN(CC#CCNC(=O)[C@]23CCC(C)(C)C[C@H]2C2=CC[C@@H]4[C@@]5(C)Cc6c([nH]c7ccccc67)C(C)(C)[C@@H]5CC[C@@]4(C)[C@]2(C)CC3)CC1             growth             %             32.4
 6  CCCCCCCCCCCCC1CCC/C=C\CCC(=O)O1 (stereo not given)             growth             %             95.6
 7  CCN(CC)CCCC(C)Nc1cc(-c2cccc(OC(F)(F)F)c2)nc2ccc(N3CCCC3)cc12 (stereo not given)             growth             %              -10
 8      COc1ccc(-c2ncc(-c3ccccc3)[nH]2)cc1OC             growth             %             83.6
 9  Fc1ccc(-n2cc(COc3ncnc4sc5c(c34)CCCC5)nn2)cc1Cl             growth             %               95
10          CCN(CC)CCCCCCNc1cc(OC)cc2cccnc12             growth             %               20

###

- Test system: CAKI-1 renal
- assay-procedure: NCI-60 one-dose screen, 48 h (100 = growth as untreated, 0 = no growth, -100 = all killed)
- protocol-conditions: 10 µM unless noted
- Method: Growth inhibition of the CAKI-1 human tumor cell line is measured as a screen for anti-cancer activity. Cells are grown in 96 well plates and exposed to the test compound for 48 hours. Compounds are tested at a single concentration, which is 10^-5 M for most compounds. The reported endpoint is percent growth (GI% or GIPRCNT), where numbers from 0 - 100% represent growth inhibition, and numbers from -100% - 0 represent cell death. For example, a value of 40 represents 60% growth inhibition. […]
About 83,000 compounds went through this panel and 20% of them were active in at least one assay; those are over-represented in the sample as a whole.
# growth annotations

molecule	growth / %
COc1cc2nc(-c3ccc(C(F)(F)F)cc3)cc(OCCN3CCCC3)c2cc1OC	68.7
CCCCCOc1ccc(/C=N/Nc2cc(C)nc3ccc(Br)cc23)cc1	43.6
CCc1c(Nc2ccc(C)cc2)[nH]c(N)nc1=S	89.8
COc1cccc(CCC(=O)c2cc3c(N)c(C(=O)Nc4ccccc4)sc3nc2C)c1	28.4
c1ccc(-c2nnc(Nc3ccc4c(c3)OCCO4)o2)c(NCc2ccncc2)c1	21.1
COc1ccc(NS(=O)(=O)c2ccc(C)cc2)c([N+](=O)[O-])c1	98.2
CCC1(CC)NC(=O)c2c(c3ccc(Cl)c(Cl)c3n2C)C1C#N (stereo not given)	66.6
C=C(C)[C@@H]1CC[C@]2(C(=O)NCC(=O)OC)CC[C@]3(C)[C@H](CC[C@@H]4[C@@]5(C)Cc6c([nH]c7ccccc67)C(C)(C)[C@@H]5CC[C@]43C)[C@@H]12	58.6
O=c1[nH]c(=O)[nH]c(=S)[nH]1	94.9
Fc1ccc(C2CC(c3cccc(Nc4ccncc4)c3)=NN2c2cc(Cl)cc(Cl)c2)cc1 (stereo not given)	31.1
CC1(C)CC[C@]2(C(=O)NCC#CCN3CCOCC3)CC[C@]3(C)C(=CC[C@@H]4[C@@]5(C)Cc6c([nH]c7ccccc67)C(C)(C)[C@@H]5CC[C@]43C)[C@@H]2C1	81.9
O=C(Nc1nc(-c2ccc(Br)cc2)cs1)c1cc(-c2ccc(Br)cc2)nc2ccc(Cl)cc12	79.3
O=S(=O)(NCCCNc1nccc(-c2c(-c3ccc(F)c(O)c3)nc3sccn23)n1)c1ccc(F)cc1	8.16
COC(=O)C1NC(=S)N(c2ccc(Cl)cc2)C1/C=C/c1ccccc1 (stereo not given)	91.3
C=Cc1cc[n+](CCCCCCCCCCCC)cc1	103
CN(C)C(=O)c1cc2cnc(Nc3ccc(-c4csc5c(=O)cc(N6CCOCC6)oc45)cc3)nc2n1C1CCCC1	-50.8
O=C(O)CCCCCCCCCCCCCCC(=O)O	103
COc1ccc(-c2nc(N/N=C/c3cccc(Br)c3)nc(N3CCOCC3)c2C#N)cc1	59.6
NS(=O)(=O)c1cccc(NC(=O)C(=O)C2C(=O)Nc3ccccc32)c1 (stereo not given)	-3.03
COc1cc(/C=C/C(=O)c2ccc(Nc3ncnc4ccccc34)cc2)cc(OC)c1	69.3
C=C(C)[C@H]1CC/C(C)=C/CC[C@]2(C)O[C@H]2CC/C(COC(=O)[C@@H](OC(C)=O)[C@H](NC(=O)c2ccccc2)c2ccccc2)=C\[C@@H]1O	89.6
CC1(c2ccccc2)NC(=O)N(CC(=O)Nc2cccc(I)c2)C1=O (stereo not given)	72.9
COC(=O)C1=C(C(=O)ONCCN(C)C)C2C=CC1(C(Cc1ccccc1)Nc1ccc(F)cc1)O2 (stereo not given)	88
CCCCCN1C=C/C(=C\C(=O)N(C)c2cccc3ccccc23)c2ccccc21	89.8
O=C1CCC(NC(=S)Nc2ccccc2)N1 (stereo not given)	106
O=[N+]([O-])c1cccc(-c2nc(-c3ccc(Cl)cc3Cl)cn2-c2ccccc2)c1	-68.8
CC(=O)Nc1ccc(C(=O)Nc2cc(-c3ccccc3)ccc2N)cc1	47.5
Cc1ccc2nc3c(cc2c1)CSc1nnc(-c2ccc[nH]c2=S)n1N3	78.7
Cn1c(COC(=O)N2CCCCC2)nc2c(N3CCOCC3)nc(-c3ccccc3)nc21	-88
COc1ccc(C(=O)c2cc3c(N)c(C(=O)Nc4cccc(OC)c4)sc3nc2C)cc1	45.8
